Target entity: T1, ADAR1-Zα (UniProt P55265 134-198)
T1 sequence: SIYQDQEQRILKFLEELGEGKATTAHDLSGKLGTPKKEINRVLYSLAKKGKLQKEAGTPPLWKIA
Experimental details: SPR
pKd: −log10 of the molar value.
Quick rule for you: pKd at 8 or higher means 1 (yes), lower means 0 (no).

Decide: pKd of A5 (ssDNA) DNA: TTCAGCACTCCACGCATAGCCCGCCCCCCGCTACTCCCCTCCTGAGTTGCCGTCGCCCTATGCGTGCTACCGTGAA >= 8?
1 (yes)

Decide: pKd of A12 (ssDNA) DNA: TTCAGCACTCCACGCATAGCACACGCGCGAAGACCCCCACCGATCCGGCCGCTCGTCCTATGCGTGCTACCGTGAA >= 8?
0 (no)

Decide: pKd of A16 (ssDNA) DNA: TTCAGCACTCCACGCATAGCACACCGCCCCCCTCTACTCGGCACACTCGCCCGCCCCTATGCGTGCTACCGTGAA >= 8?
0 (no)

Decide: pKd of A13 (ssDNA) DNA: TTCAGCACTCCACGCATAGCCCGGCCGACGGAACAATCCGTGTTCACTCGTCGCACCCTATGCGTGCTACCGTGAA >= 8?
0 (no)

Decide: pKd of A7 (ssDNA) DNA: TTCAGCACTCCACGCATAGCGACGGGCCAACACCCCAGGTTCGCGTCCCCGCCTGCCCTATGCGTGCTACCGTGAA >= 8?
0 (no)

Decide: pKd of A4 (ssDNA) DNA: TTCAGCACTCCACGCATAGCACGCCCGCCACCCCCTCTCCTGGCCATCCGCGCACACCTATGCGTGCTACCGTGAA >= 8?
1 (yes)

Decide: pKd of A6 (ssDNA) DNA: TTCAGCACTCCACGCATAGCCCGCACCCAGCCGCGACTGCCCCCTGGTTCGGCCCGCCTATGCGTGCTACCGTGAA >= 8?
0 (no)

Decide: pKd of A11 (ssDNA) DNA: TTCAGCACTCCACGCATAGCCCGGTGCCGACCGAACCACCGTTGCCCTCCGCATGCCCTATGCGTGCTACCGTGAA >= 8?
0 (no)

Decide: pKd of A2 (ssDNA) DNA: TTCAGCACTCCACGCATAGCCGGCCAGCCAAGTCCCCGCTCCTCACGGCCCCCCGCCCTATGCGTGCTACCGTGAA >= 8?
0 (no)

Cited source for all entries: paper doi:10.1101/2025.10.22.683608
